Where do these numbers come from? They come from paper PMC5540273.

# Tested on: PIP5K1A
# Assay setup: concentration: 1 μM,replicates: in singlicate; n = 1;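 further: KINOMEscan kinase panel screen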
Readout: %Inh (%)
Response body: numeric value in %, unit text excluded.

// solved cases for %Inh follow
C[C@@H](Oc1cc(-n2cnc3cc(-c4cnn(C)c4)ccc32)sc1C(N)=O)c1ccccc1Cl [GSK580432]    0
C[C@@H](Oc1cc(-n2cnc3ccc(-c4ccncc4)cc32)sc1C(N)=O)c1ccccc1Cl [GSK483724]    0
CC(=O)Nc1nc2cnc(Nc3cc(NC(=O)c4cccc(CC(C)(C)C#N)c4)ccc3C)nc2s1    0

Exam item: Please give measured %Inh of the following entry: CCn1c(-c2nonc2N)nc2cncc(Br)c21 [SB-738004]
Marked response: 54

Exam item: Please give measured %Inh of the following entry: Cc1ccc2c(-c3ccnc(Nc4ccc(C(F)(F)F)cc4)n3)cnn2n1 [GW819776]
Marked response: 15

Exam item: Please give measured %Inh of the following entry: Nc1nccc(-c2ccc3c(N)n[nH]c3c2)n1 [GSK1034945]
Marked response: 0

Exam item: Please give measured %Inh of the following entry: CS(=O)c1ccc(-c2coc3ccc(-c4n[nH]c(=O)o4)cc23)cc1 (stereo not drawn)
Marked response: 0

Exam item: Please give measured %Inh of the following entry: Cn1ccc2ncnc(Oc3ccc(NC(=O)Nc4ccnc(C(F)(F)F)c4)c(Cl)c3)c21
Marked response: 13

Exam item: Please give measured %Inh of the following entry: CCn1c(-c2nonc2N)nc2cncc(CNC3CCNCC3)c21.Cl [SB-747651]
Marked response: 0

Exam item: Please give measured %Inh of the following entry: COc1ccc(Nc2nccc(N3CCC(NC(=O)c4cccc(C#N)c4)C3)n2)cc1 (stereo not drawn) [GSK1379730]
Marked response: 4

Exam item: Please give measured %Inh of the following entry: CC(=O)Nc1ccc(-c2cc3ncnc(SCC(=O)O)c3s2)cc1
Marked response: 0

Exam item: Please give measured %Inh of the following entry: Cc1ccn2nc(-c3ccc(F)cc3)c(-c3ccncc3)c2c1.Cl [GW457859]
Marked response: 54

Exam item: Please give measured %Inh of the following entry: Cn1ccc2ncnc(Oc3ccc(NC(=O)Nc4cncc(C(F)(F)F)c4)c(Cl)c3)c21
Marked response: 29

Exam item: Please give measured %Inh of the following entry: Cc1n[nH]c2cc(Nc3ccnc(Nc4cccc(CN5CCOCC5)c4)n3)ccc12 [GW682569]
Marked response: 57

Exam item: Please give measured %Inh of the following entry: Cn1ccc2ncnc(Oc3ccc(NC(=O)Nc4cccc(C(F)(F)F)c4)c(Cl)c3)c21
Marked response: 0

Exam item: Please give measured %Inh of the following entry: COc1cc2c(Nc3ccc(NC(=O)c4ccccc4)cc3)ncnc2cc1OCCCN1CCOCC1 [GSK301329]
Marked response: 0

Exam item: Please give measured %Inh of the following entry: O=C(Nc1ccc(Oc2ccc3nc(NC(=O)C4CC4)cn3n2)c(F)c1)c1cccn(-c2ccccc2)c1=O
Marked response: 1

Exam item: Please give measured %Inh of the following entry: C[C@@H]1CNc2c(sc3ccc4nc(-c5ccncc5)ccc4c23)C(=O)N1
Marked response: 30

###

# Tested on: DDR2
# Assay setup: concentration: 1 μM,replicates: in singlicate; n = 1
Readout: %Inh (%)
Response body: numeric value in %, unit text excluded.

CS(=O)(=O)c1cccc(CNc2nc(Nc3ccc4c(c3)[C@@H]3C[C@@H]4CNC3=O)ncc2C(F)(F)F)c1    6
COc1cccc(CNC(=O)NC2CCN(c3ccnc(Nc4cc(OC)c(OC)c(OC)c4)n3)C2)c1 (stereo not shown) [GSK1379765]    19
CCNCC(Cc1ccccc1)NC(=O)c1cc(Br)c(-c2ccnc3[nH]ccc23)s1.Cl.Cl (stereo not shown) [GSK1383280]    18

// next entry
Exam item: Please give measured %Inh of the following entry: CN(c1ccc2c(c1)nc(NCc1ccc(F)cc1)n2C)c1ccnc(Nc2ccc(CS(C)(=O)=O)cc2)n1.Cl [GW813244]
Marked response: 100
